Numbers sourced from patent US20250109215A1.

TESTED SYSTEM: T1, human CD123 (human, UniProt P26951 19-305, limits assumed)
T1 construct: Construct on the chip is not described; also called CD123 chip
T1 sequence (looked up): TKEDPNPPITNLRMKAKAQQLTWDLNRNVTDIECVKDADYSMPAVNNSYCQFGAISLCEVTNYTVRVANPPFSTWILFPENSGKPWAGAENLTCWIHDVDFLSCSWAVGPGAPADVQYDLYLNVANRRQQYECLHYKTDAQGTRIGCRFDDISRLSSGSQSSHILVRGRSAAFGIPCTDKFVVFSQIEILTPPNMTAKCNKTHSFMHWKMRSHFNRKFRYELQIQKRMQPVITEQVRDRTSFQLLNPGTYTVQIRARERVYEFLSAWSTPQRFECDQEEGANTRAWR
PROCEDURE DETAILS: Biacore, Fab-His on CD123 (Example 3; the sheet names no assay)
MEASURED QUANTITY: Kd (nM)
Note: unit nM is implicit; provide only the numeric part.

Prompt line: I am curious: what Kd value has been reported for 13967 7G3_H1.109_L1.57_Fab_His (Fab, V domains shown, also called XENP13967) VH: QVQLQQSGAEVKKPGASVKVSCKASGYTFTDYYMKWVKQSHGKSLEWMGDIIPSNGATFYNQKFKGKATLTVDRSTSTAYMELSSLRSEDTAVYYCARSHLLRASWFAYWGQGTLVTVSS VL: DFVMTQSPDSLAVSLGERATINCKSSQSLLNTGNQKNYLTWYQQKPGQPPKLLIYWASTRESGVPDRFTGSGSGTDFTLTISSLQAEDVAVYYCQNDYSYPYTFGGGTKLEIKR ?
Response line: 0.0954
